Data origin, for the record: patent US20210261636A1

- System: CD4+ T cells
- protocolDetails: Exogenous autologous healthy donor restimulation assay, TNFα and IFNγ production by CD4+ T cells
- Format: cell-based, human
- Parameters: unit not given here
- conditionContext: maximum CD4+ T-cell response, donor independent; peptide pool 10 μg/mL, healthy donors
measurementName: Frequency (TNFα+ IFNγ+ CD4 T cells)
Kindly provide the number alone.

Query: Output Frequency (TNFα+ IFNγ+ CD4 T cells) of AFIYHAFVGSTKTAWRTTL [FUS13, gene fusion KCNQ5-> KCNQ5-IT1]
Result: 0.057

Query: Answer with the recorded Frequency (TNFα+ IFNγ+ CD4 T cells) of PRDNHTDHENPRGSDGQGRWKCPSQVTYIRRTLM [FUS16, gene fusion UBE2J1-> GABRR2] only.
Result: 0.027

Query: Kindly indicate its recorded Frequency (TNFα+ IFNγ+ CD4 T cells). Item: LVARPEIQIFMEEDVMKVE [AS124, alternative splicing, PDZRN4]
Result: 0.064

Query: Answer with the recorded Frequency (TNFα+ IFNγ+ CD4 T cells) of GEPGEDAGIGRPEEREREEEMADQ [AS135, alternative splicing, ZBP1] only.
Result: 0.03

Query: Return Frequency (TNFα+ IFNγ+ CD4 T cells) for the following sequence: AAGVVTEIEAAVKA [FUS17, gene fusion HBS1L-> ALDH8A1]
Result: 0.012

Query: Identify measured Frequency (TNFα+ IFNγ+ CD4 T cells) corresponding to LGRLEEAKSFETEEN [AS121, alternative splicing, OGT]
Result: 0.02

Query: Look up and state reported Frequency (TNFα+ IFNγ+ CD4 T cells) for PPLITNVTEKPWKHTRIEMPLARLTRP [FUS51, gene fusion POU2AF1-> COLCA1]
Result: 0.061

Query: Provide one value: measured Frequency (TNFα+ IFNγ+ CD4 T cells) of QLKKMVSKVRLRRARLPGRAHRSLPRPVESVPAQPSKLPRRAGSPGAVLSDLLRTPPRGACRLVRESPYGSWEGGGRRQSTKAWSGGYLTPAAHPPSSLPLSLELSVGQCSFSFVFINTNKGSYLVVDLRQSSTPVPI [AS11]
Result: 0.45

Query: Please look at this sequence and report its Frequency (TNFα+ IFNγ+ CD4 T cells): GGPPFVGPLRGPRAQPSLSGLCGRRTGSRDTIKIPGQT [FUS42, gene fusion RBM42-> ETV2]
Result: 0.11

Query: Specify Frequency (TNFα+ IFNγ+ CD4 T cells) for PPGGHSPQDLSIREIFCLGHKEVC [AS136, alternative splicing, ZNF592] and stop.
Result: 0.07

Query: Answer with the recorded Frequency (TNFα+ IFNγ+ CD4 T cells) of PPTAAASQTMQIFVKT [FUS31, gene fusion FOSB-> UBC] only.
Result: 0.004

Query: Determine its reported Frequency (TNFα+ IFNγ+ CD4 T cells): GEKILFIRVKFYFSLILFLWEDSEFELGEI [AS9, alternative splicing, GAS2]
Result: 0.099

Query: Identify Frequency (TNFα+ IFNγ+ CD4 T cells) associated with the sequence SEMVAHERYVFEATGNDSFRTLCLLMK [AS112, alternative splicing, CFAP54]
Result: 0.012

Query: Could you please provide reported Frequency (TNFα+ IFNγ+ CD4 T cells) for KKEDVNFQVKQLIH [AS96, alternative splicing, ANKRD28] ? Thanks!
Result: 0.027

Query: Input NAVRSYYEGTENIVAV [FUS18, gene fusion CADPS2-> RNF148] , output reported Frequency (TNFα+ IFNγ+ CD4 T cells).
Result: 0.005

Query: Could you please provide reported Frequency (TNFα+ IFNγ+ CD4 T cells) for TAILFTRQQSKALPSLGITNRHGFWAGQGNTVMHGRDSDGKQVKGTVVILAQGAFHQ [AS109, alternative splicing, ADAMTS15] ? Thanks!
Result: 0.064

Query: Consider the sequence LLPPGQESAIIGPPGMQ [FUS45, gene fusion IFNAR2-> IL10RB] and give its recorded Frequency (TNFα+ IFNγ+ CD4 T cells).
Result: 0.1
